Assay: in vitro
Format: in vitro ADME
Details: human, s9, pH 7.4
Experimental: Example D: GI S9 Stability […] The S9 metabolic reactions were initiated by the addition of the substrates to the S9 reaction mixture to a final concentration of 2 μM. […] Aliquots ([…]) of the diluted supernatant were analyzed on a Thermo Q-Exactive mass spectrometer as described below. […]
Respond with yes for half-life at 2 μM values of 0.8 min and above, no for values below.

Smiles code	Category label
N#C[C@@]1(c2ccc3c(N)ncnn23)O[C@H](COC(=O)OC(CF)CF)[C@H]2OC(=O)CCCC(=O)O[C@H]21	no
CCOC(=O)OC[C@H]1O[C@@](C#N)(c2ccc3c(N)ncnn23)[C@@H]2OC(=O)CCCC(=O)O[C@@H]21	no
CCOC(=O)OC[C@H]1O[C@@](C#N)(c2ccc3c(N)ncnn23)[C@@H]2OC(=O)CC(C)(C)CC(=O)O[C@@H]21	yes
CC1(C)CC(=O)O[C@H]2[C@@H](OC(=O)C1)[C@](C#N)(c1ccc3c(N)ncnn13)O[C@@H]2COC(=O)OC1CCOCC1	yes
CC1(C)CC(=O)O[C@H]2[C@@H](OC(=O)C1)[C@](C#N)(c1ccc3c(N)ncnn13)O[C@@H]2CO	yes
CC(C)OC(=O)OC[C@H]1O[C@@](C#N)(c2ccc3c(N)ncnn23)[C@@H]2OC(=O)CCCCCCC(=O)O[C@@H]21	no

* * *

experiment: in vitro; conditions: human, plasma
// half-life at 2 μM lookup, one value per entry

Compound	half-life at 2 μM, h
CC(C)[C@H](N)C(=O)OC[C@H]1O[C@@](C#N)(c2ccc3c(N)ncnn23)[C@@H]2OC(=O)CCCC(=O)O[C@@H]21 [Compound C59]	0.308
CC1(C)CC(=O)O[C@H]2[C@@H](OC(=O)C1)[C@](C#N)(c1ccc3c(N)ncnn13)O[C@@H]2COC(=O)OC(CF)CF [Compound C44]	2.22
CC(C)OC(=O)OC[C@H]1O[C@@](C#N)(c2ccc3c(N)ncnn23)[C@@H]2OC(=O)CN(C)CC(=O)O[C@@H]21 [Compound C4]	1.09

* * *

assay: in vitro; assay type: in vitro ADME; conditions: human, s9, pH 7.4
Below, each entry is listed alongside its reported log10 of half-life at 2 μM.
Reported endpoint: log10 of half-life at 2 μM (log10 of the value in s)

Smiles code	log10 of half-life at 2 μM
COC(=O)OC[C@H]1O[C@@](C#N)(c2ccc3c(N)ncnn23)[C@@H]2OC(=O)CCCC(=O)O[C@@H]21	1.57
COC(C)(C)COC(=O)OC[C@H]1O[C@@](C#N)(c2ccc3c(N)ncnn23)[C@@H]2OC(=O)CCCC(=O)O[C@@H]21	1.53
N#C[C@@]1(c2ccc3c(N)ncnn23)O[C@H](COC(=O)OCCN2CCOCC2)[C@H]2OC(=O)CCCC(=O)O[C@H]21	1.52
CCC(CC)COC(=O)OC[C@H]1O[C@@](C#N)(c2ccc3c(N)ncnn23)[C@@H]2OC(=O)CC(C)(C)CC(=O)O[C@@H]21	2.63
CCOC(=O)[C@@H]1[C@H](OC(=O)OC[C@H]2O[C@@](C#N)(c3ccc4c(N)ncnn34)[C@@H]3OC(=O)CC(C)(C)CC(=O)O[C@@H]32)CCN1C	2.67
CC(C)(C)COC(=O)OC[C@H]1O[C@@](C#N)(c2ccc3c(N)ncnn23)[C@@H]2OC(=O)CCCC(=O)O[C@@H]21	1.55
